Listing of recorded melting point by entry.

Field: example entries. Status: answers known.
[
  {
    "compound": "CSc1ncc(Br)c(N(C)NC(=O)c2c(Cl)cccc2Cl)n1",
    "melting point": "254 to 256 °C"
  },
  {
    "compound": "CCOC1=CC2=CC[C@@H]3[C@H](CC[C@]4(CC)C(=O)C=C[C@@H]34)[C@H]2CC1",
    "melting point": "137 °C"
  },
  {
    "compound": "Cc1c(C)c2c(c(C)c1NC(=O)CC(C)(C)C)C(c1ccc(C=O)cc1)CO2 (stereo not given)",
    "melting point": "195 to 196 °C"
  }
]

// Input: CCc1c2c(nn1C)c(N)nc1ccccc12 . Output its melting point only. 257 to 259 °C

// Input: O=C(O)C#Cc1ccc(Cl)cc1Cl . Output its melting point only. 161 to 163 °C

// Input: CCCCCCCCCCCCCCCC1=CC=CC(=O)C12CO2 (stereo not given) . Output its melting point only. 45 to 47 °C

// Input: Cc1c(O)ccc2c1OCC(c1ccc(N)cc1)C2 (stereo not given) . Output its melting point only. 150 to 151 °C

// Input: CC(C(=O)NC1=NCCS1)c1ccc(C(=O)c2cccs2)cc1 (stereo not given) . Output its melting point only. 186 °C

// Input: O=C1CCC2C3Cc4ccc(O)c5c4C2(CC[N+]3([O-])CC2CC2)C1O5 (stereo not given) . Output its melting point only. 209 to 211 °C

// Input: CCCCCCCCCCCCCCCCCCOCC(Br)COCCCCCCCCCCCCCCCCCC . Output its melting point only. 47.9 to 48.7 °C

----------
measurement kind: melting point

Field: example entries. Status: answers known.
[
  {
    "compound": "C=C1C(O)C(CO)OC1n1cc(I)c(=O)[nH]c1=O (centres undefined)",
    "melting point": "169 to 172 °C"
  },
  {
    "compound": "O=C(O)c1ccccc1NCc1ccncc1",
    "melting point": "208 °C"
  },
  {
    "compound": "C=CCS(=O)(=O)c1ccc(N2CC=C(c3ccc(Cl)cc3)N2)cc1",
    "melting point": "210 °C"
  },
  {
    "compound": "O=C(NCC(O)C(=O)O)c1cc2cc(Cl)ccc2[nH]1 (racemic)",
    "melting point": "214 to 215 °C"
  },
  {
    "compound": "CC(=O)N1CC=C(C#Cc2ccc3c(c2)NC(=O)CC(c2cccc(C#N)c2)=N3)CC1",
    "melting point": "203 °C"
  },
  {
    "compound": "CCCCCCCNC(=O)N(C)c1cccc(-c2ccc(CC(OCC)C(=O)O)cn2)c1 (centres undefined)",
    "melting point": "140 to 141 °C"
  },
  {
    "compound": "O=C(O)C1CN(c2ccc(-c3noc(CCl)n3)cc2)C(=O)O1 (centres undefined)",
    "melting point": "178 to 181 °C"
  },
  {
    "compound": "CCCCCCCCCCCCCCOc1cc(OCCCCCCc2cccc(OCc3ccccc3)c2OCc2ccccc2)cc(C(=O)O)c1",
    "melting point": "75 to 77 °C"
  }
]

# next compound below
// Input: COc1cc2c(cc1Nc1ncc(Cl)c(Nc3ccccc3S(=O)(=O)N3CCCC3)n1)CCN(CC(=O)N(C)C)CC2 . Output its melting point only. 67 to 74 °C

----------
Listing of recorded melting point by entry.

// Input: CCCNC(=O)[C@H](C)C[C@H](O)[C@H](CC1CCCCC1)NC(=O)[C@H](Cc1cscn1)NC(=O)[C@@H](CC(=O)N(C)Cc1ccccc1)Cc1ccccc1 . Output its melting point only. 115 to 118 °C

----------
Listing of recorded melting point by entry.

Field: example entries. Status: answers known.
[
  {
    "compound": "COc1cc(C(N)=O)c([N+](=O)[O-])cc1OCc1ccccc1",
    "melting point": "222 to 224 °C"
  },
  {
    "compound": "CCOC(=O)c1cccc(NC(=O)c2sc(NC(=N)N)nc2C)c1",
    "melting point": "149 to 152 °C"
  },
  {
    "compound": "CCCCN(Cc1ccc(-c2ccccc2-c2nnnn2C(c2ccccc2)(c2ccccc2)c2ccccc2)cc1)c1nc(C)cc(C)n1",
    "melting point": "131 to 133 °C"
  }
]

// Input: COC(=O)c1c(N)n(C)c2ccccc12 . Output its melting point only. 192 to 196 °C

// Input: COC(=O)[C@H](C)OC(=O)c1cc(-n2c(=O)cc(C(F)(F)F)n(C)c2=O)ccc1Cl . Output its melting point only. 59 to 60 °C

// Input: CCCn1nc(C(C)C)c(C(=O)OCOC(=O)C(C)(C)C)c1Cc1ccc(-c2ccccc2-c2nnn[nH]2)cc1 . Output its melting point only. 62 to 67 °C

// Input: CC(c1oc2ccccc2c(=O)c1-c1ccccc1)n1nc(-c2cn[nH]c2)c2c(N)ncnc21 (stereo not drawn) . Output its melting point only. 214 to 217 °C

// Input: CC(=O)N(O)Cc1ccccc1Nc1c(Cl)ccc(C)c1Cl . Output its melting point only. 155 to 156 °C

// Input: Cc1ccc(-c2cc(OCC(=O)N3CCSCC3)c3c(C(F)(F)F)cccc3n2)cc1 . Output its melting point only. 154 °C

// Input: CCOCCOc1ccc(-c2ccc3c(c2)C=C(C(=O)Nc2ccc(CN(C)C4CCOCC4)cc2)CCS3(=O)=O)cc1F . Output its melting point only. 212 to 214 °C

// Input: CC(C)(C)OC(=O)NCC(=O)N1[C@@H](C(=O)OC(C)(C)C)CC[C@H]1c1ccccc1 (racemic) . Output its melting point only. 112 °C

// Input: CNC(=O)c1sc(C(C)(C)C)cc1NC(=O)Nc1ccc(C)cc1 . Output its melting point only. 202 to 204 °C

// Input: COc1cccc(S(=O)(=O)N2CCc3cc(OCc4ccccc4)c(OC)cc3C2=O)c1 . Output its melting point only. 140 to 145 °C

// Input: COc1cc(CC(=O)N[C@@H](COC(=O)C(C)(C)C)Cc2ccccc2)ccc1OCCN=[N+]=[N-] . Output its melting point only. 77 to 80 °C

// Input: CN1CCN(c2ccc(F)cc2C=C2CCCN(CCc3ccc(Cl)cc3)C2=O)CC1 . Output its melting point only. 88 to 90 °C

// Input: O=C(O)C[C@@H]1Cc2cccc3c2[C@@H](CCC3)C1 (relative stereo) . Output its melting point only. 115 to 116 °C

// Input: COc1ccccc1Cc1ccc2nc(N)nc(N)c2c1 . Output its melting point only. 214 to 215 °C

// Input: COc1ccnc(CCc2nc3cc(-c4ccc(S(=O)(=O)N5CCc6cc(OC)c(OC)cc6C5)cc4)cnc3[nH]2)c1 . Output its melting point only. 207 to 208 °C

----------
Listing of recorded melting point by entry.

Field: example entries. Status: answers known.
[
  {
    "molecule": "CCOC(=O)C1(C(=O)OCC)CCC2(CC1)NCCc1cc(OC)c(OC)cc12",
    "observed result": "103 to 104 °C"
  },
  {
    "molecule": "CS(=O)(=O)N1CCC2OC2CC1 (configuration not stated)",
    "observed result": "133 to 134 °C"
  },
  {
    "molecule": "CCOC(=O)N(c1ccccc1N)c1cccc(C)c1C",
    "observed result": "95 to 97 °C"
  },
  {
    "molecule": "CC(=O)c1cc(O)c(C)c(C)c1O",
    "observed result": "151 °C"
  },
  {
    "molecule": "CCOCC(=O)Nc1ncc(Cc2cc(OC)c(OC)c(OC)c2)c(N)n1",
    "observed result": "175 to 176 °C"
  },
  {
    "molecule": "O=Cc1cccc(-c2cnc3cnc(-c4ccc(O)cc4)nc3c2)c1",
    "observed result": "266 °C"
  },
  {
    "molecule": "O=C(c1c(Cl)cccc1[N+](=O)[O-])n1ccnc1-c1ccccc1",
    "observed result": "147 to 148 °C"
  },
  {
    "molecule": "CC(C)(C)c1ccc(C(O)(c2ccc(Cl)cc2)c2ncc[nH]2)cc1 (configuration not stated)",
    "observed result": "95 to 110 °C"
  }
]

// Input: CCOC(=O)C(C)c1ccc(N[C@@H](CCC(N)=O)C(=O)O)cc1 (some centres not stated) . Output its melting point only. 157 to 158 °C

// Input: CNc1nc(N)c(SC)c(Cl)n1 . Output its melting point only. 205 °C

// Input: NS(=O)(=O)c1ccc(-c2c(-c3ccccc3)noc2COCCS(=O)(=O)CCO)cc1 . Output its melting point only. 81 °C

// Input: COc1ccc(Nc2ccc(F)cc2)cc1 . Output its melting point only. 46 to 48 °C

// Input: O=C(COCc1cc(Br)cc2[nH]c(=O)c(=O)[nH]c12)Nc1ccccc1 . Output its melting point only. > 250 °C

// Input: CC(=O)c1cc(Cl)cc(Oc2ncccc2C(=O)NC[C@H]2CC[C@H](C(C)(C)O)CC2)c1 . Output its melting point only. 133 to 135 °C

// Input: c1ccc(-c2ccon2)cc1 . Output its melting point only. 75 °C
